Target: Rgg144 (recombinant, Streptococcus pneumoniae D39, SPD_0144) (Streptococcus pneumoniae D39)
Experiment: fluorescence polarisation
measured parameter: IC50 (µM)
Answer in µM, number only, no unit symbol.

### Prompt Which IC50 is reported for this binder? SEWVIVIPFLTNL [unlabeled SHP144 (13-residue synthetic peptide, wild type)]
### Response 86.8
